Read-out record for D(2) dopamine receptor (Rattus norvegicus, UniProt P61169): pKi
One number for each entry, as −log10 of the molar value.

Hey, can you go through the list below and give me pKi for every item?
1. CCN1CCC[C@H]1CNC(=O)c1cc(S(=O)(=O)CC)ccc1OC [Sultopride]
2. COC(=O)[C@@H]1[C@H]2C[C@H]3c4[nH]c5ccccc5c4CCN3C[C@@H]2CC[C@@H]1O

Response:
[8.62, 6.80]

FYI, the data here is from BindingDB's records for doi:10.1016/0006-8993(87)90040-0.
